Target: crude influenza virus sialidase (Influenza A virus)
Sequence (P03468 whole entry, looked up): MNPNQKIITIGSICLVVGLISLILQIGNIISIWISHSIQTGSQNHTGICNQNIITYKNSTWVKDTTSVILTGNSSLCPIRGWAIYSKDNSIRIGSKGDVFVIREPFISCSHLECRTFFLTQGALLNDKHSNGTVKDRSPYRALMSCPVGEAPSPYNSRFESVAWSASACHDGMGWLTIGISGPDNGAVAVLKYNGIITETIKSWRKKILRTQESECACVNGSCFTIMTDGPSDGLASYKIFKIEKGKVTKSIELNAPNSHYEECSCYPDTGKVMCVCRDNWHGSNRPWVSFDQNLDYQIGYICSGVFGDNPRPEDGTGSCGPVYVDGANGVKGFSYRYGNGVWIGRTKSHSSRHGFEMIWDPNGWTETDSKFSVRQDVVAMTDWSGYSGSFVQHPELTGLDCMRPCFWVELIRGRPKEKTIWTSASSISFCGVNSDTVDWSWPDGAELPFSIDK
Structures can show the parent of a compound that is named as a salt.
Property name: IC50 (nM)

INSERT INTO measurements (molecule, val) VALUES
  ('CCO[C@@H]([C@@H]1OC(C(=O)O)=C[C@H](N=C(N)N)[C@H]1NC(C)=O)[C@H](O)CO [Example 30, trifluoroacetic acid salt]', 7);
